These data points were gathered from patent US10597388B2.

Tested on: crabgrass, large (large crabgrass, Digitaria sanguinalis)
protocol text: Test C greenhouse herbicide test, pre- and postemergence
Assay type: in vivo
conditions: Preemergence, 125 g ai/ha; scale 0 to 100, 0 is no effect, 100 is complete control
Exercise: for every item that follows, state its recorded Plant response rating, Crabgrass, Large.

Inquiry: Value wanted: Plant response rating, Crabgrass, Large (crabgrass, large (large crabgrass, Digitaria sanguinalis)) of entry CCc1oc2ccc(C)cc2c1-c1c(O)c(C)nn(C)c1=O [Compound 10]
Reply text: 0

Inquiry: Value wanted: Plant response rating, Crabgrass, Large (crabgrass, large (large crabgrass, Digitaria sanguinalis)) of entry CC(=O)Oc1c(Cl)nn(C)c(=O)c1-c1c(C)sc2ccc(Cl)cc12 [Compound 116]
Reply text: 50

Inquiry: Value wanted: Plant response rating, Crabgrass, Large (crabgrass, large (large crabgrass, Digitaria sanguinalis)) of entry COC(=O)Oc1cnn(C)c(=O)c1-c1c(C)sc2ccccc12 [Compound 97]
Reply text: 0

Inquiry: Value wanted: Plant response rating, Crabgrass, Large (crabgrass, large (large crabgrass, Digitaria sanguinalis)) of entry CC(=O)Oc1c(C)nn(C)c(=O)c1-c1c(C)cc(C)c2ccccc12 [Compound 99]
Reply text: 60

Inquiry: Value wanted: Plant response rating, Crabgrass, Large (crabgrass, large (large crabgrass, Digitaria sanguinalis)) of entry Cc1ccc2ccccc2c1-c1c(O)c(Br)nn(C)c1=O [Compound 23]
Reply text: 75

Inquiry: Value wanted: Plant response rating, Crabgrass, Large (crabgrass, large (large crabgrass, Digitaria sanguinalis)) of entry Cc1sc2ccccc2c1-c1c(O)c(Cl)nn(C)c1=O [Compound 89]
Reply text: 25

Inquiry: Value wanted: Plant response rating, Crabgrass, Large (crabgrass, large (large crabgrass, Digitaria sanguinalis)) of entry Cc1ccc2ccccc2c1-c1c(O)c(I)nn(C)c1=O [Compound 29]
Reply text: 55

Inquiry: Value wanted: Plant response rating, Crabgrass, Large (crabgrass, large (large crabgrass, Digitaria sanguinalis)) of entry CC(=O)Oc1c(Cl)nn(C)c(=O)c1-c1c(C)sc2ccc(C(F)(F)F)cc12 [Compound 152]
Reply text: 10

Inquiry: Value wanted: Plant response rating, Crabgrass, Large (crabgrass, large (large crabgrass, Digitaria sanguinalis)) of entry CCc1ccc2ccccc2c1-c1c(O)c(C)nn(C)c1=O [Compound 32]
Reply text: 70

---

Tested on: speedwell (bird's-eye speedwell, Veronica persica)
protocol text: Test D controlled growth environment herbicide test, pre- and postemergence
Format: in vivo
conditions: Postemergence, 31 g ai/ha; scale 0 to 100 (0 no effect, 100 complete control)
Exercise: for every item that follows, state its recorded Speedwell plant response rating.
I only need the number, thanks.

Inquiry: Name the reported Speedwell plant response rating value associated with the compound Cc1nn(C)c(=O)c(-c2ccc(Br)c3ccccc23)c1O [Compound 75]
Reply text: 80

Inquiry: Name the reported Speedwell plant response rating value associated with the compound Cn1nc(Br)c(O)c(-c2cccc3ccccc23)c1=O [Compound 20]
Reply text: 5

Inquiry: Name the reported Speedwell plant response rating value associated with the compound CCCC(=O)Oc1c(C)nn(C)c(=O)c1-c1c(C)sc2ccc(C)cc12 [Compound 105]
Reply text: 45

Inquiry: Name the reported Speedwell plant response rating value associated with the compound CCc1sc2ccc(C)cc2c1-c1c(O)c(C)nn(C)c1=O [Compound 47]
Reply text: 10

Inquiry: Name the reported Speedwell plant response rating value associated with the compound CCc1sc2c(C)cc(C)cc2c1-c1c(O)c(C)nn(C)c1=O [Compound 57]
Reply text: 100
